Target: T1, recombinant mouse soluble gpNMB (recombinant mouse gpNMB-FLAG-His) (mouse, UniProt Q99P91 23-502)
T1 sequence: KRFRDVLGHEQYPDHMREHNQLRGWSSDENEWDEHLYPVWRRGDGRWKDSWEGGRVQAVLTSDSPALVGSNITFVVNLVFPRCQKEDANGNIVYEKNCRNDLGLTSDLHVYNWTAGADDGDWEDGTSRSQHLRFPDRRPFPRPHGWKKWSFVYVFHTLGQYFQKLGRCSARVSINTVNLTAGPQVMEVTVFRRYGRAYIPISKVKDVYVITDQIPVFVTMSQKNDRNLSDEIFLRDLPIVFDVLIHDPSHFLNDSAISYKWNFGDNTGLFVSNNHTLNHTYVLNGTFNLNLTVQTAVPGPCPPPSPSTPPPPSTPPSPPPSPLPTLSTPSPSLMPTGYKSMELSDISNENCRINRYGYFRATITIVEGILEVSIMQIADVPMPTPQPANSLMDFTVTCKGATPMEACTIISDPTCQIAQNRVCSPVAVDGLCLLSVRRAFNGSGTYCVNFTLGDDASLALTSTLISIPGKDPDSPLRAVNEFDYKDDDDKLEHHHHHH
Test: SPR, antibody 100 nM over captured gpNMB-FLAG-His, 25C
Measured kon, listed per entry.
Just the number in M⁻¹ s⁻¹, nothing appended.

Reference set (5 entries):
Looking up GPN18-5 (antibody, V domains shown, monoclonal with mouse IgG constant regions) VH: QVQLQQSGAELAKPGTSVKMSCKASGYTFTTYWMNWVKQRPGQDLEWIGAINPSNDYTEYNQKFKDKAILTADKSSNTAYMQLSSLTSEDSAVYYCGRSYSPDYWGQGTTLTVSS VL: DIVMTQSQKFMSTSVGDRVSVTCKASQNVDNHVAWHQQKPGQSPKALIYSASYRYSGVPDRFTGSGSGTDFTLTIRDVQSEDLADYFCQQYKSYPFTFGSGTELEIK , I found its kon recorded as 91000

Looking up GPN18-2 (antibody, V domains shown, monoclonal with mouse IgG constant regions) VH: QVTLKESGPGILQPSQTLSLTCSFSGFSLSTSVMGVGWIRQPSGKGLEWLADIWWDDDKDYNPSLKSRLTISKDTSKNQVFLKIASVDTADTATYYCARTYYSNYEYYGMDYWGQGTSVTVSS VL: DVLMTQTPLSLPVSLGDQASISCRSSQTIILSNGNTYLEWYLQKPGQSPKLLIYKVSNRFSGVPDRFSGSGSGTDFTLKISRVEAEDLGVYYCFQGSHVPFTFGSGTKLEIK , I found its kon recorded as 24000

Looking up GPN18-1 (antibody, V domains shown, monoclonal with mouse IgG constant regions) VH: QVTLKESGPGILQPSQTLSLTCSFSGFSLSTSVMGVGWIRQPSGKGLEWLADIWWDDDKDYNPSLKSRLTISKDTSKNQVFLKIASVDTADTATYYCARAYYSNYEYYGMDYWGQGTSVTVSS VL: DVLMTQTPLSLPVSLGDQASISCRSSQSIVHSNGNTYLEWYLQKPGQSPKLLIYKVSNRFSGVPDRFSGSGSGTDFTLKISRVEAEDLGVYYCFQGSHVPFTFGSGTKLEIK , I found its kon recorded as 38000

Looking up GPN11-10 (antibody, V domains shown, monoclonal with mouse IgG constant regions) VH: QVNLLQSGAALVKPGASVRLSCKTSGYTFTDCYIHWVRQSHGKSLEWIGFINPNSGYTFYNEKFKSKATLTVAKSTNTAYMELSRLTSEDSATYFCTRGDYYTSNLYDWFAYWGQGTLVTVSS VL: DTVMTQSPASMSTSVGERVTVNCKASQTVGTVVAWFQQKPGQSPKRLIYWATNRHTGVPDRFTGSGFGRDFSLTISNVEAEDLAVYYCLQYGSVPPTFGGGTKLELK , I found its kon recorded as 75000

Looking up GPN05-1 (antibody, V domains shown, monoclonal with mouse IgG constant regions) VH: QVQLQQSGAELVRPGTSVKVSCKASGYAFSNHLIEWVKQRPGQGLEWIGVINPGSGGTNYIEKFKGKATLTADKSSSTAYMQLSSLTSDDSAVYFCARGANWDVGFAYWGQGTLVTVSA VL: EIQMTQSPSSMSASLGDRITITCQATQDIVKNLNWYQQKPGKPPSFLIYYATELAEGVPSRFSGSGSGSDFSLTISNLESEDFADYYCLQFHEFPRTFGGGTKLEIK , I found its kon recorded as 61000

Let us move to another entry and its kon.
Looking up GPN15-3 (antibody, V domains shown, monoclonal with mouse IgG constant regions) VH: QVTLKESGPGILQPSQTLSLTCSFSGFSLTTSGMGVGWIRQPSGKGLEWLADMWWDDDKNYNPSLKSRLTISKDNSKKQVFLKIASVDTADTATYYCARRVYSSWFAYWGQGTLVTVSA VL: DIVMTQSQKFMSTSVGDRVSVTCKASQNVGANVAWYQQKPGQSPKTLIYSASYRYGGVPDRFTGSGSGTDFTFTITNVQSEDLAEYFCQQYNNYPLTFGAGTKLDLK , I found its kon recorded as 130000

Origin of the recorded values: patent EP4772193A1
